Give measured Growth controlling degree (%) Velvetleaf for each item. Keep answers brief.
Tested on: velvetleaf
Experiment: Test Example 1: foliage treatment, upland pot test
Format: in vivo, Abutilon theophrasti MEDIC.
Conditions: active ingredient 1000 g/ha, observed 18th to 23rd day, 0 = non-treated, 100 = complete kill
One number for each entry, in %.

Recorded Growth controlling degree (%) Velvetleaf, per entry:
CC(C)C(c1cnccc1C(F)(F)F)N(C)C(=O)C=Cc1cccc2ccccc12 (stereo not shown): 40
CC(C)C(c1cnccc1C(F)(F)F)N(C)C(=O)Cc1ccc(I)cc1 (stereo not shown): 90
CC(C)C(c1cnccc1C(F)(F)F)N(C)C(=O)Cc1cccc(Br)c1 (stereo not shown): 80
COC(=O)N(C)C(c1cnccc1C(F)(F)F)c1cccc2ccccc12 (stereo not shown): 95
CC(C)C(c1cnccc1C(F)(F)F)N(C)C(=O)Cc1cccc(F)c1F (stereo not shown): 80

Provide reported Growth controlling degree (%) Velvetleaf for each item, in the same order as listed.
1. CC(C)COC(=O)N(C)C(c1cnccc1C(F)(F)F)c1cccc2ccccc12 (stereo not shown)
2. CC(C)C(c1cnccc1C(F)(F)F)N(C)C(=O)Cc1ccc(F)cc1F (stereo not shown)
3. CC(C)C(c1cnccc1C(F)(F)F)N(C)C(=O)Cc1ccccc1Cl (stereo not shown)
4. CC(C)C(c1cnccc1C(F)(F)F)N(C)C(=O)Cc1ccccc1 (stereo not shown)
5. CC(C)C(c1cnccc1C(F)(F)F)N(C)C(=O)Cc1ccccc1Br (stereo not shown)

*A*
1: 95; 2: 90; 3: 80; 4: 90; 5: 70
